- Tested System: Human β2 adrenoceptor (Homo sapiens, UniProt P07550)
- Construct: purchased Perkin Elmer
- Sequence (P07550 whole entry): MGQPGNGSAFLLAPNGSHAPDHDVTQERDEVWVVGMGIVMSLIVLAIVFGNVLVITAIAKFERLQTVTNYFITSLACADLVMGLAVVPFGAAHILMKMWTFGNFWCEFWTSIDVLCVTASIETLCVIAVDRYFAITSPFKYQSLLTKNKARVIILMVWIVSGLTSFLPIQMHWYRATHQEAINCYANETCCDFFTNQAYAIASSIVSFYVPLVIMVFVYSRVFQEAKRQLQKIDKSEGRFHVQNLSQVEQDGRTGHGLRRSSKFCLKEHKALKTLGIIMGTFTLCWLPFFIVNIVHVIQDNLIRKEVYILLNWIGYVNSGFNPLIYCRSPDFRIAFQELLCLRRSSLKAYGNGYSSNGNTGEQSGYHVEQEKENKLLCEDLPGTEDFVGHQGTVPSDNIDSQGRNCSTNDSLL
- Assay Comment: β2 Adrenoceptor Radioligand Binding Assay
- Test Settings: human β2 adrenoceptor membranes, 125-I Cyanopindolol; read-out: B2 binding affinity (Ki class)
Property: Ki

Query block: Looking for the measured Ki of CCN(CCCNC[C@H](O)c1ccc(O)c2[nH]c(=O)ccc12)C(=O)c1ccc(CCC(=O)N2CC(C(=O)O[C@H]3CN4CCC3CC4)(c3ccccc3)C2)cc1 [Compound 12A] , can you help?
Result block: 1 to 10 nM

Query block: So what's the measured Ki for this one? O=C(Cc1ccc(CC(=O)N2CC(C(=O)O[C@H]3CN4CCC3CC4)(c3ccccc3)C2)cc1)N(CCCNC[C@H](O)c1ccc(O)c2[nH]c(=O)ccc12)Cc1ccccc1 [Compound 14A]
Result block: < 1 nM

Query block: What value of Ki has been reported for the following molecule? `O=C(Cc1ccc(CC(=O)N(CCCNC[C@H](O)c2ccc(O)c3[nH]c(=O)ccc23)Cc2cccc(F)c2)cc1)N1CCC(C(=O)O[C@H]2CN3CCC2CC3)(c2ccccc2)CC1`
Result block: < 1 nM

Query block: Reported Ki for `O=C(Cc1ccc(CC(=O)N(CCCNC[C@H](O)c2ccc(O)c3[nH]c(=O)ccc23)Cc2cccc(Oc3ccc(Cl)c(Cl)c3)c2)cc1)N1CCC(C(=O)O[C@H]2CN3CCC2CC3)(c2ccccc2)CC1` : what is it?
Result block: 1 to 10 nM

Query block: Sample `COc1cccc(CN(CCCNC[C@H](O)c2ccc(O)c3[nH]c(=O)ccc23)C(=O)Cc2ccc(CC(=O)N3CCC(C(=O)O[C@H]4CN5CCC4CC5)(c4ccccc4)CC3)cc2)c1` — what was its Ki?
Result block: < 1 nM

Query block: Fill in the blank: the reported Ki of `O=C(c1ccc(OCc2cccc(OCCCCNC[C@H](O)c3ccc(O)c4[nH]c(=O)ccc34)c2)cc1)N1CC(C(=O)O[C@H]2CN3CCC2CC3)(c2ccccc2)C1` is ____.
Result block: < 1 nM

Query block: Request the reported Ki associated with `Cc1cc(/C=C/C(=O)N2CCC(C(=O)O[C@H]3CN4CCC3CC4)(c3ccccc3)CC2)ccc1OCCCCCNC[C@H](O)c1ccc(O)c2[nH]c(=O)ccc12`
Result block: < 1 nM

Query block: Report Ki for O=C(NCCCNC[C@H](O)c1ccc(O)c2[nH]c(=O)ccc12)c1ccc(COc2ccc(C(=O)N3CC(C(=O)O[C@H]4CN5CCC4CC5)(c4ccccc4)C3)cc2)cc1 [Compound 19A] please.
Result block: < 1 nM

Query block: What does the record list as Ki for `O=C(Cc1ccc(CC(=O)N(CCCNC[C@H](O)c2ccc(O)c3[nH]c(=O)ccc23)Cc2ccccc2OCc2ccccc2)cc1)N1CCC(C(=O)O[C@H]2CN3CCC2CC3)(c2ccccc2)CC1` ?
Result block: 1 to 10 nM

Query block: Form field: reported Ki of `O=C(Cc1ccc(CC(=O)N(CCCNC[C@H](O)c2ccc(O)c3[nH]c(=O)ccc23)Cc2ccccc2F)cc1)N1CCC(C(=O)O[C@H]2CN3CCC2CC3)(c2ccccc2)CC1`
Result block: < 1 nM
